# Percent Effect values compiled below
Measured Target: Arginase-2, mitochondrial (Homo sapiens)
Protocol: in vitro enzyme assay to detect the production of urea directly proportional to the activity of Arginase II
Format: functional
Design: scale not given: in the data most compounds retested in dose-response had high values
Setup Conditions: 33.3 µM

- Compound: "CN(C)CC1CN(Cc2nnc(-c3ccccc3Cl)o2)CCO1 (configuration not stated)"
  Percent Effect / %: 1.77
- Compound: "CCCN1CCCn2nc(CNS(=O)(=O)c3ccc(C)cc3)cc2C1"
  Percent Effect / %: -3.85
- Compound: "CCOC1CCCN(C(=O)c2sccc2-n2cnnn2)C1 (configuration not stated)"
  Percent Effect / %: -1.23
- Compound: "CCc1cc(C(F)(F)F)c2c(C)nn(CC(=O)O)c2n1"
  Percent Effect / %: 9.29
- Compound: "Cc1ncc(-c2ccnc(N3CCCCCC3)n2)c(-c2cccnc2)n1"
  Percent Effect / %: 3.1
- Compound: "Cc1cnn(CC2CN(CC(=O)N(C)Cc3cccs3)CCO2)c1 (configuration not stated)"
  Percent Effect / %: 9.31
- Compound: "CC(C)N1CCO[C@H]2CN(C(=O)c3ccoc3)C[C@H]21"
  Percent Effect / %: 2.43
- Compound: "Cc1cc(OCC(=O)N2CCCC(c3ccn[nH]3)C2)no1 (configuration not stated)"
  Percent Effect / %: 3.55
- Compound: "CCc1nccn1-c1cncc(C2CCCN2Cc2ccc(F)cc2)n1 (configuration not stated)"
  Percent Effect / %: 0.443
- Compound: "Cc1ccc(Cl)cc1N1CCC(CNC(=O)CC(F)(F)F)C1 (configuration not stated)"
  Percent Effect / %: 1.23
- Compound: "COc1ccc(C(N)c2cccc(S(C)(=O)=O)c2)cc1 (configuration not stated)"
  Percent Effect / %: -6.65
- Compound: "COc1cccc(CN2CCCC3(CCN(C(=O)c4ccco4)C3)C2)c1 (configuration not stated)"
  Percent Effect / %: 5.02

====

# Percent Effect values compiled below
Measured Target: Arginase-2, mitochondrial (Homo sapiens)
Protocol: in vitro enzyme assay to detect the production of urea directly proportional to the activity of Arginase II
Format: functional
Set-up: scale not given: in the data most compounds retested in dose-response had high values
Setup Conditions: 30 µM
Readout Type: Percent Effect (%)

- Compound: "CNC(=O)[C@H]1C[C@@H]2CN(C(=O)c3occc3C)C[C@@H]2N1S(C)(=O)=O"
  Measured Target: "Arginase-2, mitochondrial (Homo sapiens)"
  Readout Type: "Percent Effect"
  Observed Result: 2.7
- Compound: "CN(CC(=O)N1CCCC1c1noc(C2CC2)n1)S(C)(=O)=O (stereo not given)"
  Measured Target: "Arginase-2, mitochondrial (Homo sapiens)"
  Readout Type: "Percent Effect"
  Observed Result: 3.78
- Compound: "CN1CCC(c2cncc(-c3cccc(Cl)c3)n2)CC1"
  Measured Target: "Arginase-2, mitochondrial (Homo sapiens)"
  Readout Type: "Percent Effect"
  Observed Result: 4.87
- Compound: "CNC(=O)[C@H]1C[C@@H]2CN(C(=O)c3ccc(C)o3)C[C@@H]2N1S(C)(=O)=O"
  Measured Target: "Arginase-2, mitochondrial (Homo sapiens)"
  Readout Type: "Percent Effect"
  Observed Result: 1.62
- Compound: "COc1ccccc1Oc1ncccc1CNC(=O)[C@H](N)CC(C)(C)C"
  Measured Target: "Arginase-2, mitochondrial (Homo sapiens)"
  Readout Type: "Percent Effect"
  Observed Result: 10.3

Entry source: ChEMBL document CHEMBL3988442
